target: Protein kinase C (PKC); test: Inhibitory effect on protein kinase C using histone II-As as substrate; type: protein assay
assay.endpoint: IC50 (µM)

{"compound": "O=C1c2c(c3c4ccc(O)cc4n([C@H]4C[C@H](O)[C@@H](CO)O4)c3c3[nH]c4cc(O)ccc4c23)C(=O)N1NC(CO)CO", "value.comparator": "=", "reported.result": 3}
{"compound": "O=C1c2c(c3c4ccc(O)cc4n([C@@H]4O[C@H](CO)[C@@H](O[C@H]5O[C@H](CO)[C@@H](O)[C@H](O)[C@H]5O)[C@H](O)[C@H]4O)c3c3[nH]c4cc(O)ccc4c23)C(=O)N1NC(CO)CO", "value.comparator": ">", "reported.result": 200}
{"compound": "C[C@H]1O[C@@H](n2c3cc(O)ccc3c3c4c(c5c6ccc(O)cc6[nH]c5c32)C(=O)N(NC(CO)CO)C4=O)[C@H](O)[C@@H](O)[C@@H]1O", "value.comparator": "=", "reported.result": 60}
{"compound": "O=C1c2c(c3c4ccc(O)cc4n([C@@H]4O[C@H](CO)[C@@H](O)[C@@H]4O)c3c3[nH]c4cc(O)ccc4c23)C(=O)N1NC(CO)CO", "value.comparator": "=", "reported.result": 120}
{"compound": "O=C1c2c(c3c4ccc(O)cc4n([C@@H]4O[C@H](CO)[C@@H](O)[C@H]4O)c3c3[nH]c4cc(O)ccc4c23)C(=O)N1NC(CO)CO", "value.comparator": "=", "reported.result": 20}
{"compound": "O=C1c2c(c3c4ccc(O)cc4n([C@@H]4O[C@H](C(O)CO)[C@@H](O)[C@H]4O)c3c3[nH]c4cc(O)ccc4c23)C(=O)N1NC(CO)CO (some centres undefined)", "value.comparator": ">", "reported.result": 200}
{"compound": "O=C1c2c(c3c4ccc(O)cc4n([C@H]4O[C@H](CO)[C@@H](O)[C@H]4O)c3c3[nH]c4cc(O)ccc4c23)C(=O)N1NC(CO)CO", "value.comparator": "=", "reported.result": 21}
{"compound": "O=C1c2c(c3c4ccc(O)cc4n([C@H]4O[C@H](CO)[C@@H](O)[C@H](O)[C@@H]4O)c3c3[nH]c4cc(O)ccc4c23)C(=O)N1NC(CO)CO", "value.comparator": "=", "reported.result": 50}
{"compound": "O=C1c2c(c3c4ccc(O)cc4n([C@H]4C[C@@H](O)[C@H](O)[C@@H](CO)O4)c3c3[nH]c4cc(O)ccc4c23)C(=O)N1NC(CO)CO", "value.comparator": "=", "reported.result": 130}

* * *

organism: Mus sp.; test: Tested for toxicity in mice; format: organism-based; settings: in vivo
assay.endpoint: LD10 (mg m**-2)

{"molecule": "O=C1c2c(c3c4ccc(O)cc4n([C@@H]4O[C@H](C(O)CO)[C@@H](O)[C@H]4O)c3c3[nH]c4cc(O)ccc4c23)C(=O)N1NC(CO)CO (some centres not stated)", "value.comparator": "=", "reported.result": 370}
{"molecule": "O=C1c2c(c3c4ccc(O)cc4n([C@@H]4O[C@H](CO)[C@H](O)[C@H]4O)c3c3[nH]c4cc(O)ccc4c23)C(=O)N1NC(CO)CO", "value.comparator": "=", "reported.result": 420}
{"molecule": "O=C1c2c(c3c4ccc(O)cc4n([C@H]4O[C@H](CO)[C@@H](O)[C@H](O)[C@H]4O)c3c3[nH]c4cc(O)ccc4c23)C(=O)N1NC(CO)CO", "value.comparator": "=", "reported.result": 170}
{"molecule": "O=C1c2c(c3c4ccc(O)cc4n([C@H]4O[C@H](CO)[C@@H](O)[C@H]4O)c3c3[nH]c4cc(O)ccc4c23)C(=O)N1NC(CO)CO", "value.comparator": "=", "reported.result": 1000}
{"molecule": "O=C1c2c(c3c4ccc(O)cc4n([C@@H]4O[C@H](CO)[C@@H](O)[C@@H](O)[C@H]4O)c3c3[nH]c4cc(O)ccc4c23)C(=O)N1NC(CO)CO", "value.comparator": "=", "reported.result": 990}
{"molecule": "O=C1c2c(c3c4ccc(O)cc4n([C@@H]4O[C@H](CO)[C@@H](O)[C@H](O)[C@H]4O)c3c3[nH]c4cc(O)ccc4c23)C(=O)N1NC(CO)CO", "value.comparator": ">", "reported.result": 1600}
{"molecule": "O=C1c2c(c3c4ccc(O)cc4n([C@@H]4O[C@H](CO)[C@@H](O)[C@H]4O)c3c3[nH]c4cc(O)ccc4c23)C(=O)N1NC(CO)CO", "value.comparator": "=", "reported.result": 570}

* * *

tested on: P388; assay: The compound was tested for the cytotoxic activity against murine leukemia cells (P388); type: functional, cell-based; conditions: Mus musculus
Just a reminder that ties go to F: only IC50 strictly below 6 nM counts as T.

{"compound.string": "O=C1c2c(c3c4ccc(O)cc4n([C@H]4C[C@@H](O)[C@H](O)[C@@H](CO)O4)c3c3[nH]c4cc(O)ccc4c23)C(=O)N1NC(CO)CO", "group.label": "T"}
{"compound.string": "O=C1c2c(c3c4ccc(O)cc4n([C@@H]4O[C@H](CO)[C@@H](O)[C@@H](O)[C@H]4O)c3c3[nH]c4cc(O)ccc4c23)C(=O)N1NC(CO)CO", "group.label": "F"}
{"compound.string": "O=C1c2c(c3c4ccc(O)cc4n([C@@H]4O[C@H](CO)[C@H](O)[C@H](O)[C@H]4O)c3c3[nH]c4cc(O)ccc4c23)C(=O)N1NC(CO)CO", "group.label": "F"}
{"compound.string": "O=C1c2c(c3c4ccc(O)cc4n([C@@H]4C[C@@H](O)[C@H](O)[C@@H](CO)O4)c3c3[nH]c4cc(O)ccc4c23)C(=O)N1NC(CO)CO", "group.label": "F"}
{"compound.string": "O=C1c2c(c3c4ccc(O)cc4n([C@@H]4OC[C@@H](O)[C@H]4O)c3c3[nH]c4cc(O)ccc4c23)C(=O)N1NC(CO)CO", "group.label": "T"}
{"compound.string": "O=C1c2c(c3c4ccc(O)cc4n([C@@H]4O[C@H](CO)[C@@H](O)[C@H](O)[C@H]4O)c3c3[nH]c4cc(O)ccc4c23)C(=O)N1NC(CO)CO", "group.label": "T"}

* * *

target: DNA topoisomerase II (Homo sapiens, UniProt P11388+Q02880); experiment: Tested for inhibitory effect on topoisomerase-2 mediated DNA cleavage using super coiled pBR322 plasmid DNA; assay type: functional

{"compound.string": "O=C1c2c(c3c4ccc(O)cc4n([C@H]4O[C@H](CO)[C@H](O)[C@H]4O)c3c3[nH]c4cc(O)ccc4c23)C(=O)N1NC(CO)CO", "EC50": "> 50 µM"}
{"compound.string": "O=C1c2c(c3c4ccc(O)cc4n([C@H]4C[C@@H](O)[C@H](O)[C@@H](CO)O4)c3c3[nH]c4cc(O)ccc4c23)C(=O)N1NC(CO)CO", "EC50": "> 50 µM"}
{"compound.string": "O=C1c2c(c3c4ccc(O)cc4n([C@@H]4OC[C@@H](O)[C@H](O)[C@H]4O)c3c3[nH]c4cc(O)ccc4c23)C(=O)N1NC(CO)CO", "EC50": "> 50 µM"}

* * *

system: P388; assay: The compound was tested for the cytotoxic activity against murine leukemia cells (P388); format: functional, cell-based; settings: Mus musculus
pIC50: −log10 of the molar value.

{"compound": "O=C1c2c(c3c4ccc(O)cc4n([C@@H]4O[C@H](CO)[C@H](O)[C@H]4O)c3c3[nH]c4cc(O)ccc4c23)C(=O)N1NC(CO)CO", "pIC50": 9.02}
{"compound": "O=C1c2c(c3c4ccc(O)cc4n([C@H]4O[C@H](CO)[C@@H](O)[C@@H](O)[C@H]4O)c3c3[nH]c4cc(O)ccc4c23)C(=O)N1NC(CO)CO", "pIC50": 7.74}
{"compound": "O=C1c2c(c3c4ccc(O)cc4n([C@H]4C[C@H](O)[C@@H](CO)O4)c3c3[nH]c4cc(O)ccc4c23)C(=O)N1NC(CO)CO", "pIC50": 8.36}
{"compound": "C[C@H]1O[C@@H](n2c3cc(O)ccc3c3c4c(c5c6ccc(O)cc6[nH]c5c32)C(=O)N(NC(CO)CO)C4=O)[C@H](O)[C@@H](O)[C@@H]1O", "pIC50": 8.52}
{"compound": "O=C1c2c(c3c4ccc(O)cc4n([C@H]4O[C@H](CO)[C@@H](O)[C@H]4O)c3c3[nH]c4cc(O)ccc4c23)C(=O)N1NC(CO)CO", "pIC50": 7.72}
{"compound": "O=C1c2c(c3c4ccc(O)cc4n([C@@H]4O[C@H](C(O)CO)[C@@H](O)[C@H]4O)c3c3[nH]c4cc(O)ccc4c23)C(=O)N1NC(CO)CO (stereo partly drawn)", "pIC50": 7.77}
{"compound": "O=C1c2c(c3c4ccc(O)cc4n([C@@H]4O[C@@H](C(O)CO)[C@@H](O)[C@H]4O)c3c3[nH]c4cc(O)ccc4c23)C(=O)N1NC(CO)CO (stereo partly drawn)", "pIC50": 7.85}
{"compound": "O=C1c2c(c3c4ccc(O)cc4n([C@@H]4O[C@H](CO)[C@@H](O)[C@@H]4O)c3c3[nH]c4cc(O)ccc4c23)C(=O)N1NC(CO)CO", "pIC50": 8.28}
{"compound": "O=C1c2c(c3c4ccc(O)cc4n([C@H]4O[C@H](CO)[C@@H](O)[C@H](O)[C@H]4O)c3c3[nH]c4cc(O)ccc4c23)C(=O)N1NC(CO)CO", "pIC50": 7.72}
{"compound": "O=C1c2c(c3c4ccc(O)cc4n([C@H]4O[C@H](CO)[C@@H](O)[C@H](O)[C@@H]4O)c3c3[nH]c4cc(O)ccc4c23)C(=O)N1NC(CO)CO", "pIC50": 7.82}
{"compound": "O=C1c2c(c3c4ccc(O)cc4n([C@H]4O[C@H](CO)[C@@H](O)[C@@H]4O)c3c3[nH]c4cc(O)ccc4c23)C(=O)N1NC(CO)CO", "pIC50": 8.07}
{"compound": "O=C1c2c(c3c4ccc(O)cc4n([C@@H]4OC[C@@H](O)[C@H](O)[C@H]4O)c3c3[nH]c4cc(O)ccc4c23)C(=O)N1NC(CO)CO", "pIC50": 8.42}
{"compound": "O=C1c2c(c3c4ccc(O)cc4n([C@@H]4O[C@H](CO)[C@@H](O)[C@H](O)[C@@H]4O)c3c3[nH]c4cc(O)ccc4c23)C(=O)N1NC(CO)CO", "pIC50": 7.44}
